TGT: Neurogenic locus notch homolog protein 2 (Homo sapiens)
ASSAY COMMENT: small molecules binding Notch2 protein – biochemical, small-molecule microarray, 635 nm fluorescence, stem cell growth factors, primary screen (AID 1073)
APPLIED CONDITIONS: higher = more signal
Kindly state composite z-score for each of the entries shown.
One number for each entry.

Take a look at these entries with their results.
COMPOUND: COCCCNC(=O)[C@@]1(Cc2ccccc2I)c2ccccc2C(=O)N(Cc2ccccc2)[C@H]1c1ccc(CO)cc1
TEST READOUT: composite z-score
EXPERIMENTAL VALUE: -1.61

COMPOUND: C=CCN1C(=O)[C@]2(Cc3ccccc31)N=C(c1ccc(OCCCO)cc1)O[C@@H]2c1ccccc1
TEST READOUT: composite z-score
EXPERIMENTAL VALUE: 1.6

COMPOUND: C=CCC(OC(C)=O)[C@@H]1[C@@H](N(Cc2ccc(-c3cccc(C(F)(F)F)c3)o2)C(=O)c2ccc(C)cc2)c2cc(OCCCO)ccc2N1C(=O)c1ccc2ccccc2n1 (some centres undefined)
TEST READOUT: composite z-score
EXPERIMENTAL VALUE: 0.126

Now for a further compound.
The measured composite z-score that COCCn1c(C(=O)N2CCCC2)cc2c1C[C@H]1CN(C(=O)c3ccccc3)[C@@](Cc3ccc(OC)cc3)(C(=O)OC)[C@@H]21 showed for Neurogenic locus notch homolog protein 2 (Homo sapiens) is 1.64

---

Please go through the items and note down their composite z-score.
ASSAY COMMENT: compounds binding Alexa647 anti-His antibody – biochemical, small-molecule microarray, 635 nm fluorescence, artefact control for SMM control protein annotation, primary screen (AID 1128);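 note: score merges feature fluorescence with signal-to-noise for each printed compound spot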
APPLIED CONDITIONS: higher = more signal

Consider the worked cases shown below.
COMPOUND: COc1ccc(C(O)C2C=CC3C(=O)N(c4ccccc4)C(=O)C3N2Nc2ccccc2)c2ccccc12 (centres undefined)
EXPERIMENTAL VALUE: 2.08
--
COMPOUND: COc1ccc([Si](C)(C)[C@@H]2[C@@H](CC(=O)N3Cc4ccccc4C[C@H]3CO)O[C@]3(C(=O)N(Cc4cccc(N5C(=O)COc6ccccc65)c4)c4ccccc43)[C@H]2C)cc1
EXPERIMENTAL VALUE: 1.16
--
COMPOUND: CCCCC(=C=CC[C@H](O)c1ccccc1OCCO)C[C@H](O)c1cc(Cl)cc(Cl)c1O
EXPERIMENTAL VALUE: 1.02

Batch request: composite z-score per item, same order as input.
1. COCCCNC(=O)[C@]1(Cc2ccccc2N=[N+]=[N-])N=C(c2ccc(OCCCO)cc2)O[C@@H]1c1ccccc1CN=[N+]=[N-]
2. Cc1ccc(S[C@]2(C(=O)NCCCN(C)C)CC(=O)N(C(C)C)[C@@H]2c2ccc(CO)cc2I)cc1
3. CCCC[C@H]1C[C@@H]1[C@@H]1N(P(=O)(c2ccccc2)c2ccccc2)[C@](CO)(c2ccccc2)CC12CC2
4. COCCOC(=O)N1C(=O)[C@@]2(c3cc(C#CCC(C(=O)OC)C(=O)OC)ccc31)[C@H](c1ccccc1OCCO)N1[C@H](c3ccccc3)[C@H](c3ccccc3)OC(=O)[C@H]1[C@@H]2C(=O)Nc1nc2ccccc2s1
5. COC(=O)[C@@]1(Cc2ccc(F)cc2)[C@H]2c3cc(C(=O)N(C)C)n(CCCNc4ccc(C(F)(F)F)cc4Cl)c3C[C@H]2CN1C(=O)c1ccccc1
6. Cc1ccc(N2C(=O)c3ccccc3[C@](C)(C(=O)NCCN3CCOCC3)[C@@H]2c2ccc(CO)cc2)nc1

2.33
-0.537
0.108
2.04
2.17
0.267

---

TGT: Alpha-bungarotoxin (Bungarus multicinctus)
ASSAY COMMENT: compounds binding labelled alpha-BTX control protein – biochemical, small-molecule microarray, Alexa647 label, 635/667 nm fluorescence, artefact control for SMM control protein annotation, profiling panel (AID 1117)
APPLIED CONDITIONS: alpha-BTX-A647 binding fluorescence, higher = more signal
Response key: yes (1) means composite z-score >= 0.2; no (0) means composite z-score < 0.2.

A selection of reference data follows.
COMPOUND: [N-]=[N+]=NCc1ccccc1C[C@]1(C(=O)NCC(O)CO)COC(c2ccc(OCCCO)cc2)=N1 (stereo not given in full)
CAT: yes (1)
//
COMPOUND: CN(C)CCCN1C(=O)[C@@]2(c3ccc([N+](=O)[O-])cc3)CC(=O)N(C3CCCCC3)[C@@H]2c2ccc(CO)cc21
CAT: yes (1)

Please check the record CCCC[C@@H]1C[C@H]1[C@@H](NC(=O)c1ccco1)c1ccccc1 and state if its composite z-score is at or above 0.2.
no (0)

Assess whether reported composite z-score for CC(C)[C@H]1COC(=O)N1C(=O)[C@H]1[C@@H](c2ccccc2)N(c2ccccc2)O[C@@H]1C sits at 0.2 or higher.
no (0)

---

ASSAY COMMENT: optical density shifts of acrAB sulA E. coli – strain DRC41, OD650, 48 h, E. coli filamentation inducer project, primary screen (AID 1152);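 note: E. coli MC1000 strain DRC41 lacking acrAB efflux pump and sulA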
APPLIED CONDITIONS: higher = more signal, called active from +8 up or from −8 down
Active and inactive are the calls of the source.
Task for the reader: assign each of the following molecules its reported z-score.

Consider the worked cases shown below.
MOLECULE: CC(c1ccccc1)C(O)C1C=CC2C(=O)N(c3ccccc3)C(=O)C2N1Nc1ccccc1F (stereo not drawn)
z-score: 0.207 (inactive)
//
MOLECULE: O=C(CS)NCCCCCCNC(=O)[C@H]1C[C@H]2C(=O)N3CCC[C@H]3C(=O)N2[C@H]1c1ccc(O)cc1
z-score: -0.827 (inactive)
//
MOLECULE: CN1C(=O)C2C=CC(C(O)C3=C[C@H]4C[C@@H](C3)C4(C)C)N(Nc3ccc([N+](=O)[O-])cc3[N+](=O)[O-])C2C1=O (stereo partly drawn)
z-score: -0.794 (inactive)
//
MOLECULE: CCCNC(=O)[C@@]1(C)c2ccccc2C(=O)N(Cc2cc(C(F)(F)F)cc(C(F)(F)F)c2)[C@H]1c1ccc(CO)cc1
z-score: -0.253 (inactive)
//
MOLECULE: O=C1[C@H]2C=C(Br)[C@H](C[C@@H]2OCCOCCO)[C@@]12CO2
z-score: -0.927 (inactive)

Below are some molecules; for each one, tell me its z-score.
1. COc1ccc([Si](C)(C)[C@H]2[C@H](CC(=O)N3CCC[C@H]3CO)O[C@@]3(C(=O)N(c4ccccc4)c4ccccc43)[C@@H]2C)cc1
2. CCCC[C@H]1OB(O)C[C@H]2C1=C(C)Cn1c(=O)n(-c3ccccc3)c(=O)n12
3. C[N+](C)(C)CCCCNC(=O)[C@H]1C[C@H]2C(=O)N3CCC[C@H]3C(=O)N2[C@H]1c1ccc(O)cc1

1: 3.01 (inactive); 2: -2.02 (inactive); 3: -0.314 (inactive)

---

ASSAY COMMENT: probe aEGFR binding to arrayed compounds – biochemical, biotinylated probe, 635/667 nm fluorescence, primary screen (AID 1097);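 note: probe is a biotinylated anti-EGFR antibody binding compounds printed on slides; score combines fluorescence near 667 nm and signal to noise of each spot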
APPLIED CONDITIONS: small-molecule microarray, higher = more signal
Consider the following compounds; for each one, report its composite z-score.
Answers are plain numbers.

SMILES STRING: C=C(CCCC)/C(=C/C[C@@H](OC(=O)c1ccncc1)c1ccc(CO)o1)c1cc(C(=O)OC)ccc1OC
TEST READOUT: composite z-score
EXPERIMENTAL VALUE: 0.107

SMILES STRING: C[N+](C)(C)CCCC[C@@H]1NC(=O)[C@@H]2C[C@H](C(=O)NCCCCCCNC(=O)CS)[C@H](c3cccc(OCCO)c3)N2C1=O
TEST READOUT: composite z-score
EXPERIMENTAL VALUE: -0.233

SMILES STRING: Cc1ccc(N2C(=O)c3ccccc3[C@](C)(C(=O)NCCN3CCOCC3)[C@@H]2c2ccc(CO)cc2)nc1
TEST READOUT: composite z-score
EXPERIMENTAL VALUE: -0.312

composite z-score measured on COCCn1c(C(=O)N2CCCC2)cc2c1C[C@H]1CN(C(=O)c3ccccc3)[C@@](Cc3ccc(OC)cc3)(C(=O)OC)[C@@H]21 = 0.147

---

ASSAY COMMENT: probe aEGFR binding to arrayed compounds – biochemical, biotinylated probe, 635/667 nm fluorescence, primary screen (AID 1097);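 note: probe is a biotinylated anti-EGFR antibody binding compounds printed on slides; score combines fluorescence near 667 nm and signal to noise of each spot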
APPLIED CONDITIONS: small-molecule microarray, higher = more signal
Could you label it Y if measured composite z-score is 0.02 or higher, and N otherwise?

Illustrative cases are given below, each with its answer.
MOLECULE: CC(C)NC(=O)[C@@]1(c2ccc([N+](=O)[O-])cc2)CC(=O)N(C(C)C)[C@@H]1c1ccc(CO)cc1
CAT: N

MOLECULE: O=C1c2ccccc2[C@@]2(Cc3ccccc3N(Cc3ccccc3)C2=O)[C@H](c2ccc(CO)cc2)N1Cc1ccccc1C(F)(F)F
CAT: N

Dear colleague, could you confirm whether CCCC[C@H]1OB(O)C[C@H]2C1=C(COc1ccccc1)C[C@H]1C(=O)N(Cc3ccccc3)C(=O)[C@H]12 has composite z-score at or above 0.02?
N

Quick check, composite z-score >= 0.02? NC(=O)[C@@]1(CCS(=O)(=O)c2ccccc2)N=C(c2ccc(OCCCO)cc2)O[C@H]1c1ccccc1
N

Please tell me: is the molecule COc1ccc([Si](C)(C)[C@H]2[C@H](CC(=O)N(CCO)Cc3ccccc3)O[C@@]3(C(=O)N(Cc4cccc(N5C(=O)c6cccc7cccc5c67)c4)c4ccccc43)[C@@H]2C)cc1 at or over 0.02 in terms of composite z-score?
N

// inclusive: composite z-score at least 0.02? input: COC(=O)[C@@]1(Cc2ccccc2)[C@H]2c3cc(C(=O)N(C)C)n(Cc4ccccc4)c3C[C@H]2CN1C(=O)c1ccccc1
Y

# check: composite z-score of COc1ccc([Si](C)(C)[C@H]2[C@H](CC(=O)N3CCC[C@H]3CO)O[C@@]3(C(=O)N(Cc4cccc(N5CCC5=O)c4)c4ccccc43)[C@@H]2C)cc1 is greater than or equal to 0.02
Y
